# measured_target: calcium-permeable DEAA mutant of rNav1.4 α-subunit (Rattus norvegicus, UniProt P15390, K1237A)
# Sequence (P15390 whole entry K1237A): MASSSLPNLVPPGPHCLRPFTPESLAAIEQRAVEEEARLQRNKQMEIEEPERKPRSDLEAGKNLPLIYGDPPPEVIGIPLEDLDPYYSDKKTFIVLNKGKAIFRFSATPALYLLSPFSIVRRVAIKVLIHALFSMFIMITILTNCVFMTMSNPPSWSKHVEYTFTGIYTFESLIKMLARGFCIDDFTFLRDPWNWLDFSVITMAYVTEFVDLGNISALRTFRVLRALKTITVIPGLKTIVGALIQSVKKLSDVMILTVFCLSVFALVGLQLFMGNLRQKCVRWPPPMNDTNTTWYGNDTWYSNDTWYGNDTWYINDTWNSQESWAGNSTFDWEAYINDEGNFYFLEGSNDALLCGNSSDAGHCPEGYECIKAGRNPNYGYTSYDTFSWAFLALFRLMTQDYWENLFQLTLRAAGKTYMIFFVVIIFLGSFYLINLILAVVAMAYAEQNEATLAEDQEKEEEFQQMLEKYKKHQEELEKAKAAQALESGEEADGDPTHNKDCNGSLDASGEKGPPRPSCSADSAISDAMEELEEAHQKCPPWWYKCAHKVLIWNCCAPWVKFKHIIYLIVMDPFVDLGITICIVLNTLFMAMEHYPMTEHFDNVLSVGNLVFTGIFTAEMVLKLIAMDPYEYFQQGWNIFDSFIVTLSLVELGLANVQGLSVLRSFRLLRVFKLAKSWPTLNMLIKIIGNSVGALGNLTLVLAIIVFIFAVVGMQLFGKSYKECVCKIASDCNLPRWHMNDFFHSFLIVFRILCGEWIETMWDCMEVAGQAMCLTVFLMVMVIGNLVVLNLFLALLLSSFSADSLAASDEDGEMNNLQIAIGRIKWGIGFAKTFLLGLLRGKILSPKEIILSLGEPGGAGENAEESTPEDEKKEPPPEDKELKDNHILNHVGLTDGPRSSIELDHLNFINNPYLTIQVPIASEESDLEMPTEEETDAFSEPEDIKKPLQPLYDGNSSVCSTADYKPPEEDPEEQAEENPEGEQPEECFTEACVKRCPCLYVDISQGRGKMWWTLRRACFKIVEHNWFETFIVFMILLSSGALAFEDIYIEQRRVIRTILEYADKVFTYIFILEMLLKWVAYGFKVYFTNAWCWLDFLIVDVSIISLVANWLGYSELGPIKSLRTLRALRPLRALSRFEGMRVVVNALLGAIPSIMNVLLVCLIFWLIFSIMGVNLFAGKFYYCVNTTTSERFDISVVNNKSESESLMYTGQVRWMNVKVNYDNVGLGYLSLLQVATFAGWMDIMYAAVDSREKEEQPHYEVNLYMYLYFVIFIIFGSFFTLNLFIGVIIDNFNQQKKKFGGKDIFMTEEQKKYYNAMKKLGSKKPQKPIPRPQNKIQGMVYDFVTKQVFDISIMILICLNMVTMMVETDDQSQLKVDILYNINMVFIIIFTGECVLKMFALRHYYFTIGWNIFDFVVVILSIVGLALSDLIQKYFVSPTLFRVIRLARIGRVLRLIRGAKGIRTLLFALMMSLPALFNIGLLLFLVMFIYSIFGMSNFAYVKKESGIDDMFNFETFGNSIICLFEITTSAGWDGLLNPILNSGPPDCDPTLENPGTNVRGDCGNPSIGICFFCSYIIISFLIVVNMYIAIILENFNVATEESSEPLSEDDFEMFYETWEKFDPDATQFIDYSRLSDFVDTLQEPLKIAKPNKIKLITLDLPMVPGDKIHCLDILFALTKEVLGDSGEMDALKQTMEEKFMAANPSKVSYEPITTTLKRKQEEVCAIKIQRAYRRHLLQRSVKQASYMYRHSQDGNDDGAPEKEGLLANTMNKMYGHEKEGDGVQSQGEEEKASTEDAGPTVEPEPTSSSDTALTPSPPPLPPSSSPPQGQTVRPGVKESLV
# run_description: fluo-3 calcium influx assay in DEAA-HEK 293 cells
# experimental_context: DEAA-HEK 293 cells, fluo-3; read-out: EC50, Ca2+ influx (95% CI)
Record form. Attribute: pEC50. Fill in for each entry.
# pEC50: negative log10 of molar concentration; output just the value

Request: Consider the compound shown here: C=C1CC(=O)N[C@@H](C)C(=O)N(C)[C@@H](C(C)C)C(=O)NCC(=O)O[C@@H](/C(C)=C/C(C)=C/C(C)(C)C)[C@@H]1C [ATX, antillatoxin] What is its recorded pEC50?
Response: 6.78

Request: For C=C1CC(=O)N[C@@H](C)C(=O)N(C)[C@@H](C(C)C)C(=O)NCC(=O)O[C@@H](/C(C)=C/CCC(C)(C)C)[C@@H]1C [DH-ATX, 8-demethyl-8,9-dihydro-antillatoxin] then?
Response: 6.17

* * *

# measured_target: rNav1.5 α-subunit (Rattus norvegicus)
# Construct: host or cells: CHL 1610 (Chinese hamster lung)
# run_description: SBFI sodium influx assay in rNav1.5-CHL 1610 cells
# Type: cell-based
# experimental_context: rNav1.5-CHL 1610 cells, SBFI, 37°C; read-out: EC50 (nM) (95% CI), sodium influx
readout_label: EC50

Request: // returns reported EC50 for input C=C1CC(=O)N[C@@H](C)C(=O)N(C)[C@@H](C(C)C)C(=O)NCC(=O)O[C@@H](/C(C)=C/CCC(C)(C)C)[C@@H]1C [DH-ATX, 8-demethyl-8,9-dihydro-antillatoxin]
Response: 595 nM

Request: Continue with C=C1CC(=O)N[C@@H](C)C(=O)N(C)[C@@H](C(C)C)C(=O)NCC(=O)O[C@@H](/C(C)=C/C(C)=C/C(C)(C)C)[C@@H]1C [ATX, antillatoxin]
Response: 205 nM

* * *

# measured_target: rNav1.4 α-subunit (Rattus norvegicus)
# Construct: host or cells: HEK 293
# Sequence (P15390 whole entry): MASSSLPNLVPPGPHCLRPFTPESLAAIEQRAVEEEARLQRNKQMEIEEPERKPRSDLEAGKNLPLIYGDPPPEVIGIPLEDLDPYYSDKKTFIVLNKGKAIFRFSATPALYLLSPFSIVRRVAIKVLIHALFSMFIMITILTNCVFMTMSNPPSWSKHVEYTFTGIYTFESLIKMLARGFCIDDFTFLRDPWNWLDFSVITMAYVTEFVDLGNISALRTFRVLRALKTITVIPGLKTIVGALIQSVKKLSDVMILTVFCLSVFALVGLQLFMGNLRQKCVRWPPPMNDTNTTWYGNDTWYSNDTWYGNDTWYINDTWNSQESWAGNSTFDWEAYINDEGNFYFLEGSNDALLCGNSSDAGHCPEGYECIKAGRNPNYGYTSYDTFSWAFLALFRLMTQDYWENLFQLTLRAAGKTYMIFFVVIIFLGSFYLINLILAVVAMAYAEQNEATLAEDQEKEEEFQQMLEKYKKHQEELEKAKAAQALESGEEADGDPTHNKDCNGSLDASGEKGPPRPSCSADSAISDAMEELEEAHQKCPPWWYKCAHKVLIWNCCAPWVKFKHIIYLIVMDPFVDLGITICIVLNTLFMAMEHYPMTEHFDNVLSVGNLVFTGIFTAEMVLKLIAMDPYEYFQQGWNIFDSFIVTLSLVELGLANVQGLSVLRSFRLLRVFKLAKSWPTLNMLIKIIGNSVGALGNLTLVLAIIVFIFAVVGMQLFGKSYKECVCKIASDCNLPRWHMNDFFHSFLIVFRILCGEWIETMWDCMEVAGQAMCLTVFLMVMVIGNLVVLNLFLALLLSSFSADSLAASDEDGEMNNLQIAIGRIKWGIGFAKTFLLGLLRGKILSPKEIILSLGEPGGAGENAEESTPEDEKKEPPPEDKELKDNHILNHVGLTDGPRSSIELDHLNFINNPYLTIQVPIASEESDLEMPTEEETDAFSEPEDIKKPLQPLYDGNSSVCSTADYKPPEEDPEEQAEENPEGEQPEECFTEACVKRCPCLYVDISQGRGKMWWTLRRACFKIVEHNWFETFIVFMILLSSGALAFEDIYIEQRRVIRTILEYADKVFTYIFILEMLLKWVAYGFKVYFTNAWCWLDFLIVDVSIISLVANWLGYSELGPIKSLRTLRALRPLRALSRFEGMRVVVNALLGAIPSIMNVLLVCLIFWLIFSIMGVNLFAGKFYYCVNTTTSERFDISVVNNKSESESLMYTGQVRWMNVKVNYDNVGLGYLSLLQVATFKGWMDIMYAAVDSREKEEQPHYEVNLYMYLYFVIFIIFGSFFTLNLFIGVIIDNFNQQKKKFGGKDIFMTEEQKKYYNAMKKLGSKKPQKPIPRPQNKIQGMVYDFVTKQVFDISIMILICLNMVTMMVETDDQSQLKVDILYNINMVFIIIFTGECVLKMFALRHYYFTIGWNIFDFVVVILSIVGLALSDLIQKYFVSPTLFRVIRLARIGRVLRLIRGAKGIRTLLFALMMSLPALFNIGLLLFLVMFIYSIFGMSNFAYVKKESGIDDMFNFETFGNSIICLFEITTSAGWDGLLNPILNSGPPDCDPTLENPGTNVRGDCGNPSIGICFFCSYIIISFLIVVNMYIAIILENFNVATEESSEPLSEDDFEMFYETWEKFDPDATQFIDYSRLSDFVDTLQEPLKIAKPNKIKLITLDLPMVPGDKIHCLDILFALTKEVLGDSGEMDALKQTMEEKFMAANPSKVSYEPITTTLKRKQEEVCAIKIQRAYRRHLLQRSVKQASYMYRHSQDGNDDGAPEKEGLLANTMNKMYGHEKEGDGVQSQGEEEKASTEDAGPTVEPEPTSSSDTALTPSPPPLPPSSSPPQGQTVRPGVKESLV
# run_description: SBFI sodium influx assay in rNav1.4-HEK 293 cells
# Type: cell-based
# experimental_context: rNav1.4-HEK 293 cells, SBFI, 37°C; read-out: EC50 (nM) (95% CI), sodium influx
readout_label: EC50

Request: Give the reported EC50 for C=C1CC(=O)N[C@@H](C)C(=O)N(C)[C@@H](C(C)C)C(=O)NCC(=O)O[C@@H](/C(C)=C/C(C)=C/C(C)(C)C)[C@@H]1C [ATX, antillatoxin] (system: rNav1.4 α-subunit (Rattus norvegicus)).
Response: 165 nM

Request: Next compound up: C=C1CC(=O)N[C@@H](C)C(=O)N(C)[C@@H](C(C)C)C(=O)NCC(=O)O[C@@H](/C(C)=C/CCC(C)(C)C)[C@@H]1C [DH-ATX, 8-demethyl-8,9-dihydro-antillatoxin]
Response: 644 nM
